molecular target: σ1 receptor (Cavia porcellus); construct: tissue Harlan Winkelmann; host or cells: guinea pig brain membranes; experiment: Receptor binding assay with [3H]-(+)-pentazocine on guinea pig brain membranes; conditions: 2 nM [3H]-(+)-pentazocine; guinea pig brain membranes; 180 min at 37 °C; mean ± SEM; read-out: affinity to the σ1 receptor
Sequence (Q60492 whole entry): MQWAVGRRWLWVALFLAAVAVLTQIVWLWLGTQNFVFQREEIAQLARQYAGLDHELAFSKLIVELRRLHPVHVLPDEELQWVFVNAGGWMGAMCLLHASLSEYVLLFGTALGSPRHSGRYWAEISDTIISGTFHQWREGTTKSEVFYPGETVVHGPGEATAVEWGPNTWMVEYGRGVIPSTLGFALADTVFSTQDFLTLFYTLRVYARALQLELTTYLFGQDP
valueType: Ki (nM)

Known results for molecules:
>>> valuereported("COc1ccc2c(c1)CCN(CCCC1(c3ccc(F)cc3)OCC(C)(C)CO1)CC2O (stereo not drawn)")
45.6
>>> valuereported("COc1ccc2c(c1)CCN(CCCCCc1ccccc1)CC2O (stereo not drawn)")
65.3
>>> valuereported("C[C@H]1[C@H](O)c2ccc(O)cc2CCN1CCCCc1ccccc1")
40.8
>>> valuereported("Oc1ccc2c(c1)CCN(CCCOc1ccccc1)CC2O (stereo not drawn)")
82.2
>>> valuereported("C[C@@H]1[C@H](O)c2ccc(O)cc2CCN1CCCCc1ccccc1")
85.5

[P] OC1CN(C2CCC(c3ccccc3)CC2)CCc2cc(OCc3ccccc3)ccc21 (stereo not drawn)
[Q] COc1ccc2c(c1)CCN(CCCCSc1ccccc1)CC2O (stereo not drawn)
[R] Oc1ccc2c(c1)CCN([C@H]1CC[C@H](c3ccccc3)CC1)CC2O (relative stereo)
[S] OC1CN(CCCSc2ccccc2)CCc2cc(OCc3ccccc3)ccc21 (stereo not drawn)
Sort by Ki, descending. Dear reader, please state the labels in the requested order.
S, R, Q, P
(S: 376 nM, R: 200 nM, Q: 94.7 nM, P: 10.4 nM)
